assay.notes: qHTS Assay for NPC1 Promoter Activators; further: nearly all actives have a fitted effect of over 60% in size;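 on activation: reporter is driven by a mutant NPC1 promoter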
particulars: Huh7 NPC1 promoter luciferase reporter, 24 h; series mostly up to 9.22 µM
The campaign covered roughly 320,000 compounds. About 7,600 (2.4%) were called active. Another 3% or so got no clear call; they are omitted. The call rests on the fitted dose curve; in most records, active means well fitted activation curve with a large enough effect; inconclusive means small, poorly fitted or top-dose-only effect; inactive means no such curve, though single readings can be large or run the other way. What follows is part of a selection rich in actives, with near analogues and random picks from the rest.
Labels: active, inactive

INSERT INTO assay_data (molecule, label_value) VALUES
  ('CCCCN(C(=O)C1CCC1)c1c(N)n(Cc2ccccc2)c(=O)[nH]c1=O', 'inactive'),
  ('CCCN(CC1CC1)C(=S)NC(=O)c1ccccc1Br', 'inactive'),
  ('COc1ccc(-c2noc(CSc3ccc(C)cc3)n2)cc1', 'inactive'),
  ('Cc1ccccc1-c1nc(C#N)c(NCc2ccco2)o1', 'inactive'),
  ('Cc1cccc(NC(=O)c2cccc(C(=O)Nc3cccc(C)c3C)n2)c1C', 'inactive'),
  ('CC(=O)Oc1cccc(C(=O)Nc2ccccc2NC(=O)c2cccc(OC(C)=O)c2)c1', 'inactive'),
  ('Cn1nc(-c2ccccc2)c(-c2nc(-c3ccc(Cl)cc3)no2)c1Cl', 'inactive'),
  ('CCOc1ccc(S(=O)(=O)N2CCCCC2)cc1NC(=O)CN1CCCC1c1cccs1 (configuration not stated)', 'inactive'),
  ('Cn1ccnc1SCC(=O)Nc1ccc2c(c1)OCCO2', 'active'),
  ('Cc1cc(NC(=O)CSc2nc3c(cc2C#N)CCCCC3)no1', 'active'),
  ('COc1ccc(OC)c(-c2csc(-c3cccs3)n2)c1', 'inactive'),
  ('CN(CC(=O)Nc1ccc(OC(F)(F)F)cc1)C(=O)C1CCC1', 'inactive'),
  ('COc1ccc(NC(=S)N2CCCC(CO)C2)c(OC)c1 (configuration not stated)', 'inactive'),
  ('CCCCc1ccc(NC(=S)NCCCN2CCOCC2)cc1', 'inactive'),
  ('COc1ccc(C(=O)OCC(=O)N2CC(=O)Nc3ccccc32)cc1Br', 'inactive'),
  ('CCc1ccccc1NC(=O)CSc1nnc(-c2ccncc2)o1', 'inactive'),
  ('O=C(NCCCN1CCN(c2ccc(F)cc2)CC1)Nc1ccc([N+](=O)[O-])cc1', 'inactive');

----------
assay.notes: qHTS Assay for NPC1 Promoter Activators; further: nearly all actives have a fitted effect of over 60% in size;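 on activation: reporter is driven by a mutant NPC1 promoter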
particulars: Huh7 NPC1 promoter luciferase reporter, 24 h; series mostly up to 9.22 µM
In all, about 320,000 compounds went through this assay and about 7,600 (2.4%) were called active. Inconclusive results (about 3%) are left out. Calls come from the whole dose curve; as a rule, active = well fitted activation curve with a large enough effect; inconclusive = small, poorly fitted or top-dose-only effect; inactive = no such curve, though single readings can be large or run the other way. What follows is part of a selection rich in actives, with near analogues and random picks from the rest.
Classes used: True for active, False for inactive

INSERT INTO measurements (compound, label_value) VALUES
  ('CCc1ccc(NC(=O)N2CCc3ccccc3C2)cc1', 'True'),
  ('Cc1ccc(CNC(=O)CC(NC(=O)c2ccccc2)c2ccccc2)cc1 (stereo not given)', 'False'),
  ('CCOc1ccc2nc(C(=O)N3CCCC(C)C3)sc2c1 (stereo not given)', 'True'),
  ('Cc1ccccc1Nc1nc(N)nc(CSc2nnc3ccccn23)n1', 'False'),
  ('CC1(C)CC(=O)C=C(c2cccc3c2Oc2ccccc2S3)C1', 'False'),
  ('CC(C)c1ccc(NC(=O)COC(=O)c2ccc(CN3CCCC3=O)cc2)cc1', 'False'),
  ('CCOC(=O)C1CCCN(C(=O)c2ccc(C)c(S(=O)(=O)N3CCCCC3)c2)C1 (stereo not given)', 'False'),
  ('CCc1ccc(NC(=O)N2CCN(c3ccccc3)CC2)cc1', 'False'),
  ('COc1ccc(S(=O)(=O)N2CCOCC2)cc1NC(=O)Cc1c(F)cccc1Cl', 'False'),
  ('CCN(CC)S(=O)(=O)c1ccc(CNC(=O)CN2C(=O)NC3(CCc4ccccc43)C2=O)cc1 (stereo not given)', 'False');
